Target: PAD2 (Homo sapiens, UniProt Q9Y2J8)
Construct: made in house
Sequence (Q9Y2J8 whole entry): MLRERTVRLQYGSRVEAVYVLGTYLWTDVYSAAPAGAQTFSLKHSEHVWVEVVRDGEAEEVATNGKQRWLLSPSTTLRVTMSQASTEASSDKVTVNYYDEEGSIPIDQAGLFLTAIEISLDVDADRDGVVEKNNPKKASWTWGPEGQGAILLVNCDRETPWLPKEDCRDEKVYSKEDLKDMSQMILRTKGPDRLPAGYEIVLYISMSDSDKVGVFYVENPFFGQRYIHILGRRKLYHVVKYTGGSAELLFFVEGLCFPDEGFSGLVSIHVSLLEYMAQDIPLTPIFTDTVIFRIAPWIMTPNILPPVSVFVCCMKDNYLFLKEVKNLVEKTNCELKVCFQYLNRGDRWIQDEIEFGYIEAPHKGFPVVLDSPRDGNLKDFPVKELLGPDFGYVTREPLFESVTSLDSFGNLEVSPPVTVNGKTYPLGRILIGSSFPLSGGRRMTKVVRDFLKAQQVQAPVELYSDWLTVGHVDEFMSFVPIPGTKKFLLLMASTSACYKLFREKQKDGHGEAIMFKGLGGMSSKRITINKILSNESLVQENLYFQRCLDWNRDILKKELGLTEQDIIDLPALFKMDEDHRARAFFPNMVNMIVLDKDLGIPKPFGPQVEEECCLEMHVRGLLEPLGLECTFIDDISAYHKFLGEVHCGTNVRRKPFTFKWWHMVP
Assay: Inactivation kinetics, PAD2
Assay type: biochemical
Conditions: kinact/KI relative to least inhibited isozyme (1.0)
experimental-endpoint: Fold PAD2 Selectivity (fold)
Output spec: scalar in fold, unitless text.

{"compound": "CCOc1cccc2c1nc([C@H](CCCNC(=N)CCl)NC(=O)c1cccc3c1C(=O)N(CC)C3)n2C [Compound 8n]", "assay-target": "PAD2 (Homo sapiens, UniProt Q9Y2J8)", "Fold PAD2 Selectivity, fold": 43}

**Query** For CCN1Cc2cccc(C(=O)N[C@@H](CCCNC(=N)CCl)c3nc4c(OC)cccc4[nH]3)c2C1=O [Compound 8j] , what is its reported Fold PAD2 Selectivity?
**Result** 2.3

**Query** Same thing, different compound: C#Cc1ccc(-c2ccc(C(=O)N[C@@H](CCCNC(=N)CF)c3nc4ccccc4[nH]3)cc2)cc1 [Compound 5u]
**Result** 1.0

**Query** Further, for N=C(CCl)NCCC[C@H](NC(=O)c1ccccc1C(=O)O)c1nc2ccccc2[nH]1 [Compound 6b] ?
**Result** 1.0

**Query** Thanks! And COc1cccc2c1nc([C@H](CCCNC(=N)CCl)NC(=O)c1cccc3c1C(=O)NC3)n2C [Compound 7l] ?
**Result** 3.9

**Query** Same for CCN1Cc2cccc(C(=O)N[C@@H](CCCNC(=N)CCl)c3nc4c(OC)cccc4n3CC)c2C1=O [Compound 8v]
**Result** 27

**Query** What about this compound? COc1ccc2[nH]c([C@H](CCCNC(=N)CF)NC(=O)c3cccc4c3C(=O)NC4)nc2c1 [Compound 7s]
**Result** 5.4

**Query** How about this compound: Cn1c([C@H](CCCNC(=N)CF)NC(=O)c2ccccc2C(=O)OC(C)(C)C)nc2ccccc21 [Compound 9a]
**Result** 2.0

**Query** Now the compound Cn1c([C@H](CCCNC(=N)CF)NC(=O)c2cccc3c2C(=O)NC3)nc2ccccc21 [Compound 7c]
**Result** 8.9

**Query** Also check CC(C)n1c([C@H](CCCNC(=N)CF)NC(=O)c2ccccc2C(=O)OC(C)(C)C)nc2ccccc21 [Compound 9e]
**Result** 19

**Query** Also check COc1cccc2c1nc([C@H](CCCNC(=N)CCl)NC(=O)c1cccc3c1C(=O)N(C1CC1)C3)n2C [Compound 8t]
**Result** 6.7

**Query** Ok, now CCN1Cc2cccc(C(=O)N[C@@H](CCCNC(=N)CCl)c3nc4ccccc4n3C(C)C)c2C1=O [Compound 8h]
**Result** 6.8

**Query** Try the compound N=C(CF)NCCC[C@H](NC(=O)c1cccc2c1C(=O)NC2)c1nc2ccccc2[nH]1 [Compound 7a]
**Result** 3.3

**Query** Same read-out for CCn1c([C@H](CCCNC(=N)CF)NC(=O)c2ccccc2C(=O)OC(C)(C)C)nc2ccccc21 [Compound 9c] ?
**Result** 14

**Query** And COc1cccc2c1nc([C@H](CCCNC(=N)CF)NC(=O)c1cccc3c1C(=O)N(C1CC1)C3)n2C [Compound 8s] ?
**Result** 77

These measurements were taken from patent US11208386B2.
